pIC50: −log10 of the molar value.
Assay read-out pIC50; system under study: PHF8 (Homo sapiens (Human)).
Sequence (Q9UPP1 37-1060): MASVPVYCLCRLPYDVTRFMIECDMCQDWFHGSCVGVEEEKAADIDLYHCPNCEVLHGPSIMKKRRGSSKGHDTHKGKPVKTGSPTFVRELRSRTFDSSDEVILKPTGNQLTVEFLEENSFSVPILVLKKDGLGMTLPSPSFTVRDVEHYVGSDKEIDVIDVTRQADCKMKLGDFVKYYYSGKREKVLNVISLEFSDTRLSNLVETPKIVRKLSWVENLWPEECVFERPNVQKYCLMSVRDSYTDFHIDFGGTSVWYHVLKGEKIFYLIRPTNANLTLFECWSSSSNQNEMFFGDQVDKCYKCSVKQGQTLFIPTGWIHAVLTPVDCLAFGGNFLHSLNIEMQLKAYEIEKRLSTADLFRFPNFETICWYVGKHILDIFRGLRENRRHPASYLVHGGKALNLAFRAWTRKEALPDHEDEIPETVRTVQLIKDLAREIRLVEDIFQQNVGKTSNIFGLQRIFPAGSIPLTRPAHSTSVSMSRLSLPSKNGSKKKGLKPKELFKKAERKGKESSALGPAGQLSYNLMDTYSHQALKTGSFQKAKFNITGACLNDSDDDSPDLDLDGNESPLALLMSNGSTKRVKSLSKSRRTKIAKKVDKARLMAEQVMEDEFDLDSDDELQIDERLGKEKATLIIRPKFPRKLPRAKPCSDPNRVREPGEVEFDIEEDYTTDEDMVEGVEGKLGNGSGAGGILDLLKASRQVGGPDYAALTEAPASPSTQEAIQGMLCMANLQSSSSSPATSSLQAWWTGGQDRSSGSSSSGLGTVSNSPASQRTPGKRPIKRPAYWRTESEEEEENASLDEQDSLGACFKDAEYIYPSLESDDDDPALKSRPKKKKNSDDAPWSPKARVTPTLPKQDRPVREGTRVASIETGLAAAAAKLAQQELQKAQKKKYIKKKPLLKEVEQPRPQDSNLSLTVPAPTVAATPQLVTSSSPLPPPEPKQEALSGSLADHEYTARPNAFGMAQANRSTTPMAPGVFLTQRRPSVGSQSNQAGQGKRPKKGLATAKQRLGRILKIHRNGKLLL

Some solved entries appear below for comparison.
{"compound": "COc1ccccc1CCn1cnc(-c2cc(-c3c[nH]nn3)ccn2)c1", "experimental.system": "PHF8 (Homo sapiens (Human))", "measurement.label": "pIC50", "recorded.result": "6.00 to 7.00"}
{"compound": "Clc1cccc(Cn2cnc(-c3cc(-c4c[nH]nn4)ccn3)c2)c1Cl", "experimental.system": "PHF8 (Homo sapiens (Human))", "measurement.label": "pIC50", "recorded.result": "6.00 to 7.00"}
{"compound": "Ic1[nH]nnc1-c1ccnc(-c2cn(CCc3cccc4ccccc34)cn2)c1", "experimental.system": "PHF8 (Homo sapiens (Human))", "measurement.label": "pIC50", "recorded.result": "< 5.00"}
{"compound": "Fc1[nH]nnc1-c1ccnc(-c2cn(CCc3cccc4ccccc34)cn2)c1", "experimental.system": "PHF8 (Homo sapiens (Human))", "measurement.label": "pIC50", "recorded.result": "6.00 to 7.00"}
{"compound": "Cn1cnc(-c2cc(-c3nn[nH]c3F)ccn2)c1-c1ccc(F)cc1OCC1CC1", "experimental.system": "PHF8 (Homo sapiens (Human))", "measurement.label": "pIC50", "recorded.result": "5.00 to 6.00"}

Give pIC50 for all compounds that follow.
1. Fc1c(Cn2cnc(-c3cc(-c4c[nH]nn4)ccn3)c2)cccc1OC(F)(F)F
2. Clc1cccc(Cn2cnc(-c3cc(-c4nn[nH]c4I)ccn3)c2)c1Cl
3. c1ccc2c(c1)CCCC2Cn1cnc(-c2cc(-c3c[nH]nn3)ccn2)c1 (centres unmarked)
4. CCOc1ccccc1CCn1cnc(-c2cc(-c3c[nH]nn3)ccn2)c1
5. FC(F)(F)c1cccc(Cn2cnc(-c3cc(-c4c[nH]nn4)ccn3)c2)c1Cl
6. FC(F)(F)COc1ccccc1CCn1cnc(-c2cc(-c3c[nH]nn3)ccn2)c1
7. COc1cc(-c2c(-c3cc(-c4c[nH]nn4)ccn3)ncn2C)ccc1F
8. c1ccc(Oc2ccccc2CCn2cnc(-c3cc(-c4c[nH]nn4)ccn3)c2)cc1

Result:
1. 5.00 to 6.00
2. 6.00 to 7.00
3. 6.00 to 7.00
4. 6.00 to 7.00
5. 6.00 to 7.00
6. 6.00 to 7.00
7. 6.00 to 7.00
8. 5.00 to 6.00

Could I get pIC50 for every one of these entries?
1. N#Cc1[nH]nnc1-c1ccnc(-c2cn(Cc3cccc(Cl)c3Cl)cn2)c1
2. COc1cccc(Cn2cnc(-c3cc(-c4c[nH]nn4)ccn3)c2)c1F
3. N#Cc1[nH]nnc1-c1ccnc(-c2cn(Cc3ccccc3Cl)cn2)c1
4. CC(Cc1ccccc1)n1cnc(-c2cc(-c3c[nH]nn3)ccn2)c1 (centres unmarked)
5. Clc1ccccc1CCn1cnc(-c2cc(-c3c[nH]nn3)ccn2)c1
6. c1ccc(COc2ccccc2CCn2cnc(-c3cc(-c4c[nH]nn4)ccn3)c2)cc1
7. CC(C)(Cn1cnc(-c2cc(-c3c[nH]nn3)ccn2)c1)c1ccccc1Cl

Result:
["5.00 to 6.00", "6.00 to 7.00", "5.00 to 6.00", "5.00 to 6.00", "≥ 7.00", "5.00 to 6.00", "6.00 to 7.00"]
